# Target Or Test System: CDK2/CycE (Homo sapiens)
# Construct: GST; purchased ProQinase GmbH (Freiburg, Germany); host or cells: insect cells (Sf9)
# Assay Summary: CDK2/CycE high ATP kinase assay (Method 2b)
# Assay type: biochemical
# Condition Notes: 2 mM ATP
Examples of molecules with documented pIC50 follow.
Quick note: pIC50 values are minus log10 of concentrations in mol/L.

See these solved cases before continuing.
COc1cc(F)ccc1-c1cc(Nc2cc(CS(C)(=N)=O)cc(C)n2)ncn1 (single isomer, unassigned) [Example 8]	5.20
COc1cc(F)ccc1-c1cc(Nc2cc(CS(C)(=N)=O)ccn2)ncn1 (single isomer, unassigned) [Example 3]	5.98
COc1cc(F)ccc1-c1cc(Nc2cc(CS(C)(=N)=O)ccn2)ncn1 (racemic) [Example 1]	5.82
COc1cc(F)ccc1-c1cc(Nc2cc(CS(C)(=N)=O)cc(C)n2)ncn1 (single isomer, unassigned) [Example 9]	5.36

pIC50 of COc1cc(F)ccc1-c1cc(Nc2cc(CS(C)(=N)=O)cc(Cl)n2)ncn1 (single isomer, unassigned) [Example 6] on CDK2/CycE (Homo sapiens)?
5.74

pIC50 of COc1cc(F)ccc1-c1cc(Nc2cc(CS(C)(=N)=O)cc(C)n2)ncn1 (racemic) [Example 7] on CDK2/CycE (Homo sapiens)?
5.44
